# target entity: Vascular endothelial growth factor receptor 2 (Homo sapiens)
# Sequence (P35968 whole entry): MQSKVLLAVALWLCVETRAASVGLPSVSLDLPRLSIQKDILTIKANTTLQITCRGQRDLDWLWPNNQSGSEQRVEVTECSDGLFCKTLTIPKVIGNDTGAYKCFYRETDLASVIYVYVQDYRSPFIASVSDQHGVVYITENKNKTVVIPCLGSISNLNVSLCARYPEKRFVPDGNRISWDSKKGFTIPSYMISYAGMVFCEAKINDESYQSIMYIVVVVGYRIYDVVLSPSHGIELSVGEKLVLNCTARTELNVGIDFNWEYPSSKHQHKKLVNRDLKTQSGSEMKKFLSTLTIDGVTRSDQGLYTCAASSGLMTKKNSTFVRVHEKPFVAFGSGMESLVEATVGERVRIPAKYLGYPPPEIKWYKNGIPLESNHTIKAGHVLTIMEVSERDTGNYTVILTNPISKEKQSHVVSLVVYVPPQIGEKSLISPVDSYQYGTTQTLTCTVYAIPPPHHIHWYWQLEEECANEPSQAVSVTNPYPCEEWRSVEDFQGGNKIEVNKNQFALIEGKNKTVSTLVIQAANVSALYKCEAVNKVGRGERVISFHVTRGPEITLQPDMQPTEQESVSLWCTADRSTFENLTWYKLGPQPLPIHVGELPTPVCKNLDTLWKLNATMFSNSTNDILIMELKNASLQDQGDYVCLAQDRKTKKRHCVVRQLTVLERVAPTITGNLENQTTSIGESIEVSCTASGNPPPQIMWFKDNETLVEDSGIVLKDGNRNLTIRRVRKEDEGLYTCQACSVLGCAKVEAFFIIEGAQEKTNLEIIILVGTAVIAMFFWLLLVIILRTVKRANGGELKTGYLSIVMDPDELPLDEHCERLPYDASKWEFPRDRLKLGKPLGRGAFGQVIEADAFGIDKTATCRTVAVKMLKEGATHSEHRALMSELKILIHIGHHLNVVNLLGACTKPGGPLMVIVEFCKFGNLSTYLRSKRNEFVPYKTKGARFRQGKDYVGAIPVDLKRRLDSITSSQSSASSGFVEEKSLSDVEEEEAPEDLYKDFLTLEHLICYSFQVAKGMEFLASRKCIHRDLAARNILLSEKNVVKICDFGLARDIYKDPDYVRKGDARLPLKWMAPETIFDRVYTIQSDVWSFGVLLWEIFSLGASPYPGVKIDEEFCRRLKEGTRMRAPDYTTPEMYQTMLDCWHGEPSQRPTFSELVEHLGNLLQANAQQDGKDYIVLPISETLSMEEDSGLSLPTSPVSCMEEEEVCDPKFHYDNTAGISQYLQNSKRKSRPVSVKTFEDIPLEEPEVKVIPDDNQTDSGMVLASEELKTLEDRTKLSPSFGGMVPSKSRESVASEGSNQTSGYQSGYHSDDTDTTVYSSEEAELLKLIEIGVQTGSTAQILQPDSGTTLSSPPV
# Assay type: cell-based, U-251
Some molecules, each annotated with its measured IC50.
Write the value in nM as a bare number.

Find IC50 (Vascular endothelial growth factor receptor 2 (Homo sapiens)) for the entry CCOc1ccc(N(C)c2nc(C)nc3oc(C)cc23)cc1 121

// below: IC50 requested for another molecule
Find IC50 (Vascular endothelial growth factor receptor 2 (Homo sapiens)) for the entry COc1ccc(N(C)c2nc(C)nc3oc(C)cc23)c(OC)c1 32.3
